Measured On: Proteasome subunit beta (Trypanosoma cruzi) (UniProt O96673)
Sequence (O96673 as listed by the source): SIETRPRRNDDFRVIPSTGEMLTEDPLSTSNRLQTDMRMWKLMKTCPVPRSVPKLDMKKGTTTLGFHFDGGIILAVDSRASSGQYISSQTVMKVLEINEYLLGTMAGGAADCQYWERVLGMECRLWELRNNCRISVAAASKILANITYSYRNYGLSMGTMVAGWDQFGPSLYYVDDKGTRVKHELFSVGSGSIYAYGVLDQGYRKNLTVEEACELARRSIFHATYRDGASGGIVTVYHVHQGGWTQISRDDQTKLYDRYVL
Assay Method Text: Trypanosoma cruzi proteasome chymotrypsin-like activity (TcProtChymo) assay. Also: in the data most compounds retested in dose-response had high values.
Assay type: functional
Set-up: scale not given: direction of the effect not stated beside the values
Measurement Context: 9.37 µM
Listed compounds paired with reported Percent Effect
// return numeric value only (unit: %, not printed)

Example entries and their recorded answers appear below.
{"columns": ["Compound", "Test Value"],
 "data": [
  ["Cc1nn(C)c(C)c1C1CCCN1C(=O)CCc1cscn1 (centres undefined)", 6.18],
  ["Cc1cc(OCC(=O)NS(=O)(=O)c2c(C)noc2C)ccc1Cl", 1.28],
  ["Cn1ncc(C(=O)N2CCCC(n3cccn3)C2)c1C1CC1 (centres undefined)", 11.6],
  ["O=C(c1cccn1Cc1cccs1)N1CCN(C(=O)C2CC2)CC1", 0.845],
  ["CS(=O)(=O)c1cccc(C(N)c2ccc(F)c(F)c2)c1 (centres undefined)", 4.16],
  ["COCCNC(=O)c1ccc(C)c(-n2cccc2)c1", 14.3],
  ["Cc1nc(C2CCCN2C(=O)c2cnns2)no1 (centres undefined)", 12.9],
  ["Cc1nc(COc2ccc(CNCC3CN(C)CCO3)cc2)cs1 (centres undefined)", 3.16]
]}

Inquiry: Dear colleague, I am looking for the recorded Percent Effect of the following compound: c1ccc(-c2nc(CN3CCOC(Cn4cccn4)C3)no2)cc1 (centres undefined)
Reply text: 7.38

Inquiry: Entry to check: CN1CCN(CC2CC2)C(=O)c2cnc(N3CC[C@@H](O)C3)nc21
Reply text: 3.99

Inquiry: Entry to check: Nc1nccc(N2CCC(Cc3ccccc3Cl)(C(=O)O)CC2)n1
Reply text: 18.1

Inquiry: Entry to check: CCn1cc(NC(=O)NCC(O)CN2CCc3ccccc3C2)cn1 (centres undefined)
Reply text: 18.2

Inquiry: Entry to check: Cc1ccc2c(c1)CCC21CCN(C(=O)CO)CC1
Reply text: 12.8

Inquiry: Entry to check: O=C(NCCOc1ncc(Cl)cc1Cl)c1ccncc1F
Reply text: 17.8

Inquiry: Entry to check: CC(C)c1nc2c(n1C)CCN(CC(=O)Nc1nccs1)C2
Reply text: 15.3

Inquiry: Entry to check: c1cn(Cc2nnc(C3CCN(C4CCOCC4)CC3)n2C2CC2)cn1
Reply text: 26.7

Inquiry: Entry to check: CN(CCN1CCOCC1)C(=O)CCc1cccc(Cl)c1
Reply text: 12.2

---

Listed molecules paired with reported Percent Effect
Measured On: Tyrosyl-tRNA synthetase, putative (Trypanosoma cruzi (strain CL Brener)) (UniProt Q4DSP6)
Sequence (whole entry): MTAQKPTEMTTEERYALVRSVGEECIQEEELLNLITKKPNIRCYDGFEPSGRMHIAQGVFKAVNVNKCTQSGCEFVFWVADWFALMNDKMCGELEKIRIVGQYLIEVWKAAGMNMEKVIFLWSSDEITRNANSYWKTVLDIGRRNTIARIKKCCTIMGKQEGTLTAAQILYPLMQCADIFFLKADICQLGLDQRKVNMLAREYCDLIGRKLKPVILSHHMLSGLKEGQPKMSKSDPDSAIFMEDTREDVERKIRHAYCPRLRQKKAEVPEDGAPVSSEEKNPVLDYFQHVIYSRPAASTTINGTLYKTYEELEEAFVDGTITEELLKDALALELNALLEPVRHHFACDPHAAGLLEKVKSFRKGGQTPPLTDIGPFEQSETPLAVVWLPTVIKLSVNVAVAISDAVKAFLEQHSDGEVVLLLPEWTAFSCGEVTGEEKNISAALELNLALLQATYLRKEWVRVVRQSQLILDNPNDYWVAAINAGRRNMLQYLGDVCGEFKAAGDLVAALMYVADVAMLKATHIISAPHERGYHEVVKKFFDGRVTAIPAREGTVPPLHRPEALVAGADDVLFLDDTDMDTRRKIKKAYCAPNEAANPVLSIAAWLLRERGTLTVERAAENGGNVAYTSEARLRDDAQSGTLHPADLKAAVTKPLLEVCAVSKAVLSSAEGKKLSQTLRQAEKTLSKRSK
Assay Method Text: Trypanosoma cruzi tyrosyl tRNA synthetase (TcYRS) _High Tyrosine SOP; also: in the data most compounds retested in dose-response had high values
Assay type: functional
Parameters: scale not given: direction of the effect not stated beside the values
Measurement Context: 30 µM
// return numeric value only (unit: %, not printed)

Example entries and their recorded answers appear below.
{"columns": ["Molecule", "Recorded Endpoint", "Units Label", "Test Value"],
 "data": [
  ["O=S(=O)(N1CCCC1)N1CCCCC1CCc1ccccc1 (configuration not stated)", "Percent Effect", "%", -3.72],
  ["Fc1ccccc1Cc1noc(CN2CCCC(CN3CCCC3)C2)n1 (configuration not stated)", "Percent Effect", "%", 6.92],
  ["Cc1cc(CNc2ccc(C(=O)N3CCCC(C)C3)cc2C)no1 (configuration not stated)", "Percent Effect", "%", 5.83],
  ["Cc1nc(C)n(CC2CCCN(c3ncnc4c3CCC4)C2)n1 (configuration not stated)", "Percent Effect", "%", -2.46],
  ["Cc1cnn(CC2CCCN2C(=O)c2cc3ccccc3[nH]2)c1 (configuration not stated)", "Percent Effect", "%", 3.81],
  ["CC(C)(C)c1n[nH]c(C2CN(C(=O)c3csnn3)CCO2)n1 (configuration not stated)", "Percent Effect", "%", 6.38],
  ["O=C(O)c1csc(S(=O)(=O)N2CCCc3ccc(F)cc32)c1", "Percent Effect", "%", -13.7],
  ["C[C@@H]1CN(C(=O)c2cnc(C3CC3)nc2)CC[C@@]1(O)C1CCOCC1", "Percent Effect", "%", 4.76],
  ["CCn1nc(C)c(CCNC(=O)C2CCCN(C(=O)N(C)C)C2)c1C (configuration not stated)", "Percent Effect", "%", 3.72],
  ["c1coc(-c2nnc(CN3CCCC(CN4CCCCCC4)C3)o2)c1 (configuration not stated)", "Percent Effect", "%", 5.32]
]}

Inquiry: Dear colleague, I am looking for the recorded Percent Effect of the following molecule: CCNC(=O)CCc1c(C)nc2cc(O)nn2c1C
Reply text: 2.91

Inquiry: Entry to check: COc1ccc(CC(=O)NC2(C)CCS(=O)(=O)C2)cc1F (configuration not stated)
Reply text: 5.79

---

Test system: Trypanosoma cruzi
Assay Method Text: Trypanosoma cruzi phosphomannomutase and mannose-1-phosphate guanylyltransferase assay
Assay type: functional
Set-up: scale not given: direction of the effect not stated beside the values
Measurement Context: 10 µM
Recorded Endpoint: Percent Effect (%)
// return numeric value only (unit: %, not printed)

Inquiry: Give recorded Percent Effect with Trypanosoma cruzi for the following compound: O=C1CCCCN1Cc1cccc(NC(=O)N2CCSCC2)c1
Reply text: 2.43

---

Measured On: Chromo domain-containing protein 1 (Saccharomyces cerevisiae (strain ATCC 204508 / S288c) (Baker's yeast))
Assay Method Text: ScCHD-1 Enzyme Inhibition Assay; also: in the data most compounds retested in dose-response had high values
Assay type: functional
Set-up: scale not given: direction of the effect not stated beside the values
Measurement Context: 30 µM
Listed compounds paired with reported Percent Effect
Reply with the number, then its unit.

Example entries and their recorded answers appear below.
{"columns": ["Compound", "Percent Effect"],
 "data": [
  ["Cc1nc(C2CCCN2C(=O)c2cnns2)no1 (centres undefined)", "-6.62%"],
  ["CCOC1COC2(CCN(Cc3ccc4c(c3)OCO4)CC2)C1 (centres undefined)", "-4.64%"]
]}

Inquiry: Dear colleague, I am looking for the recorded Percent Effect of the following compound: CN(C)CC(=O)N1C[C@@H]2CC[C@H](Oc3ccccc3Cl)[C@@H]2C1
Reply text: 9.09%

Inquiry: Entry to check: COc1cc(CN(C)C(=O)Cc2c(C)nn(C)c2C)ccc1OC(F)F
Reply text: 0.343%

Inquiry: Entry to check: Cc1ncsc1C(=O)NCCOc1ncc(Cl)cc1Cl
Reply text: -5.96%

---

Measured On: Sialic acid-binding Ig-like lectin 9 (Homo sapiens) (UniProt Q9Y336)
Sequence (Q9Y336 whole entry): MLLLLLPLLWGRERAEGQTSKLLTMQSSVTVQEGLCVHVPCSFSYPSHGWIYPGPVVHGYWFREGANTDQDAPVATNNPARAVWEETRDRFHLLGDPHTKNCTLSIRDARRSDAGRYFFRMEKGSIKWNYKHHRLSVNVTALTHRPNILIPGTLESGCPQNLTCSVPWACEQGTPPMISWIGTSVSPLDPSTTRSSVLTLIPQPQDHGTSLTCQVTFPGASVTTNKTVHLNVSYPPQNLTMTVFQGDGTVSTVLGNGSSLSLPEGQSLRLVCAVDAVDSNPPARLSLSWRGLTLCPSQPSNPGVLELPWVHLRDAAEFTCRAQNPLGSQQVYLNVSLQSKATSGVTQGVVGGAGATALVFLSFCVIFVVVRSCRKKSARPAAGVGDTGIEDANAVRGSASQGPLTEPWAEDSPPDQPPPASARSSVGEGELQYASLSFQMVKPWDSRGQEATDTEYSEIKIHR
Assay Method Text: Hs-Siglec9 ALPHAscreen SOP 20170721
Design: scale not given: direction of the effect not stated beside the values
Measurement Context: 10 µM
Recorded Endpoint: Percent Effect
Reply with the number, then its unit.

Example entries and their recorded answers appear below.
{"columns": ["Compound", "Recorded Endpoint", "Test Value"],
 "data": [
  ["COC(=O)c1ccc(N2CCN(C(=O)c3cnn(C)c3)C(C)C2)cc1 (stereo unspecified)", "Percent Effect", "11.1%"],
  ["CCc1nc(CN(C(C)=O)C2CCN(Cc3cnc(C)cn3)C2)no1 (stereo unspecified)", "Percent Effect", "-10.4%"],
  ["Nc1cc(CCC2CN(Cc3ccc(C(=O)O)cc3)CCO2)ccn1 (stereo unspecified)", "Percent Effect", "-7.05%"]
]}

With those in mind, consider the next compound.
Inquiry: Dear colleague, I am looking for the recorded Percent Effect of the following compound: Cc1cc(C)c(CNC(=O)NCC(O)COc2ccccc2)c(=O)[nH]1 (stereo unspecified)
Reply text: 1.32%

---

Measured On: Ubiquitin-activating enzyme e1, putative (Leishmania donovani (strain BPK282A1))
Assay Method Text: Leishmania donovani Ubiquitin Activating Enzyme (LdE1)
Format: functional
Set-up: scale not given: direction of the effect not stated beside the values
Measurement Context: 30 µM
Results with a measured potency or affinity are listed apart.
Listed compounds paired with reported Percent Effect

{"columns": ["Compound", "Percent Effect"],
 "data": [
  ["COc1ccc(NC(C)=O)c(N2CCN(C(C)=O)CC2)n1", "-2.7%"],
  ["O=C(CCc1ccccc1)NCC1CCN(Cc2ccsc2)CC1", "13%"],
  ["CC(C)CCC(C)NC(=O)c1ccc(OCC(N)=O)cc1 (centres undefined)", "10.8%"],
  ["CC(C)[C@H](NC(=O)NC1CCS(=O)(=O)C1)C(=O)NCc1ccccc1Cl (some centres undefined)", "-6.67%"]
]}

Inquiry: Give recorded Percent Effect with Ubiquitin-activating enzyme e1, putative (Leishmania donovani (strain BPK282A1)) for the following compound: CN(C)C(=O)COC[C@]12COC[C@H]1CN(Cc1ccoc1)C2
Reply text: 2.7%

Inquiry: Entry to check: Cc1ccc(S(=O)(=O)NC(=O)c2cccc3c2OCCO3)c(C)c1
Reply text: -5.48%

Inquiry: Entry to check: COc1cc2nc(C)n(CC(=O)NCCCN(C)C)c(=O)c2cc1OC
Reply text: 20%

Inquiry: Entry to check: COc1ccc(C2=CCN(C(=O)C3CCCN(C(N)=O)C3)CC2)cc1 (centres undefined)
Reply text: 7.89%

Inquiry: Entry to check: CC(C)N(C)C(=O)C1=NOC2(CCN(C(=O)c3ccncc3)C2)C1 (centres undefined)
Reply text: 2.74%
